These data points were gathered from paper PMC10397247.

Target: T1, AP7-AA
T1 chain: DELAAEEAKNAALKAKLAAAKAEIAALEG
Assay: two-hybrid library CCmax;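 also: natural log of median RNA to DNA barcode read ratio; higher means stronger binding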
Conditions: mean of both orientations
binders and their reported interaction score

| binder | interaction score |
| --- | --- |
| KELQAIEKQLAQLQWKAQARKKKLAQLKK [4H_APH] | -2.03 |
| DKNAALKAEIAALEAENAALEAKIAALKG [4H3606-AA] | -1.35 |
| DEIAALEAKNAALKAELAAIEAKIAAKKG [AP5-AA] | -1.69 |
| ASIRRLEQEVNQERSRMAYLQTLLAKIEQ [4H_BCR] | -1.69 |

Exercise: Quick check: interaction score of DELAANEAELAAEEAKLAAAKAKAAALKG [AP4-AA] ?
Key: -1.78
